Where these numbers come from: ChEMBL document CHEMBL1124636

Test system: Cavia porcellus
Protocol Summary: Inhibition of leukotriene D4 induced bronchoconstriction in anesthetized guinea pigs after intravenous administration
Format: functional
Condition: read-out: ID50 (the source's name)
The following molecules are listed with their measured ED50 values.
Just the number please, in mg/kg, no unit attached.

CCCc1c(OCCCCc2nnn[nH]2)ccc(C(C)=O)c1O; 5
CCCc1c(OCCCCCOc2cc3c(cc2C(C)=O)CCC(C)(C(=O)O)O3)ccc(C(C)=O)c1O (centres undefined); 10
COc1cc(C(=O)NS(=O)(=O)c2ccccc2)ccc1Cn1ncc2ccc(NC(=O)OC3CCCC3)cc21; 0.03

From here, focus on the item given below.
## Input Request body: readout ED50, system Cavia porcellus, query CCCc1c(OCCCS(=O)(=O)c2ccc(C(=O)CCC(=O)O)cc2)ccc(C(C)=O)c1O . Return the value.
## Output 6

###

Species on record: Rattus norvegicus
Protocol Summary: Inhibitory activity to inhibit Inophore-induced arachidonic acid metabolism (inhibition of LTB4 formation) in rat
Assay type: functional, organism-based
Catalogue of IC50 values
Numbers only here, please. The scale is µM.

Examples with answers:
CCCc1c(OCCCCCOc2cc3c(cc2C(C)=O)CCC(C(=O)O)O3)ccc(C(C)=O)c1O (stereo not drawn); 4
CC(C)c1ccc2c(c1)c(SC(C)(C)C)c(CC(C)(C)C(=O)O)n2Cc1ccc(Cl)cc1; 0.2

## Input IC50 for COc1ccc2c(c1)c(CC(=O)O)c(C)n2C(=O)c1ccc(Cl)cc1 ?
## Output 60

###

Tested on: Cavia porcellus
Protocol Summary: Inhibition of leukotriene D4 induced bronchoconstriction in anesthetized guinea pigs after intravenous administration at a dose of 10 mg/kg
Type: functional
Mark false for inhibition in vivo at 10 mg/kg values under 40%, and true for everything at or above.

Reference set (3 entries):
CCCc1c(OCCCCCOc2cc3c(cc2C(C)=O)CCC(CCCCC(=O)O)O3)ccc(C(C)=O)c1O (stereo unspecified); false
CCCc1c(OCC(O)COc2ccc3c(=O)cc(C(=O)O)oc3c2CCC)ccc(C(C)=O)c1O (stereo unspecified) [FPL-55712]; true
O=S(=O)(Nc1cccc(OCc2ccc3ccccc3n2)c1)C(F)(F)F [RITOLUKAST]; true

## Input Tell me whether inhibition in vivo at 10 mg/kg is at least 40% here: CCCc1c(OCCCCCCc2cc3c(cc2C(C)=O)CCC(C(=O)O)O3)ccc(C(C)=O)c1O (stereo unspecified)
## Output true

## Input Then what about the compound CCCc1c(OCCCCCOc2cc(OCC(=O)O)ccc2C(C)=O)ccc(C(C)=O)c1O ?
## Output false

###

System: Cysteinyl leukotriene receptor (Cavia porcellus)
Protocol Summary: Inhibitory activity to block binding of [3H]leukotriene D4 to Cysteinyl leukotriene D4 receptor sites in homogenized guinea pig lung at 10 uM
Each entry below carries its recorded inhibition.
Return type: number; implicit unit %.

Reference set, count: 4
CCCc1c(OCc2ccccc2CCOc2cc3c(cc2C(C)=O)CCC(C(=O)O)O3)ccc(C(C)=O)c1O (stereo not given); 26
CCCc1c(OCCCS(=O)(=O)c2ccc(C(=O)CCC(=O)O)cc2)ccc(C(C)=O)c1O [L-648051]; 0
CCCc1c(OCCCCCOc2cc3c(cc2C(=O)CC)CCC(C(=O)O)O3)ccc(C(C)=O)c1O (stereo not given); 52
CCCc1c(OCCCCCCc2cc3c(cc2C(C)=O)CCC(C(=O)O)O3)ccc(C(C)=O)c1O (stereo not given); 20

## Input # input molecule: CCCc1c(OCCCCCOc2cc3c(cc2C(C)=O)CCC(C(=O)O)C3)ccc(C(C)=O)c1O (stereo not given) ; wanted: its inhibition
## Output 65
